- System: Substance-P receptor (Homo sapiens, UniProt P25103)
- Sequence (P25103 whole entry): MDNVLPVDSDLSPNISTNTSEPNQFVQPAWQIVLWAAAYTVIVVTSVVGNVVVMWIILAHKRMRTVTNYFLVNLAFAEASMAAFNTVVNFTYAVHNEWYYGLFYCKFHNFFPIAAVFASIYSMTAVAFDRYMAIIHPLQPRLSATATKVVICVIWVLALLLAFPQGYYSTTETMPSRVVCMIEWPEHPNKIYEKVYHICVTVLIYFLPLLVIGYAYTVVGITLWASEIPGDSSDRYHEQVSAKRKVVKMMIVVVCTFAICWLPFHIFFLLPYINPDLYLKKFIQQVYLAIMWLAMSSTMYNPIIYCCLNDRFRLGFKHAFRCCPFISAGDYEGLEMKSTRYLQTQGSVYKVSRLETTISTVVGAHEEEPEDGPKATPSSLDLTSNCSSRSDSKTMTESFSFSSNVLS
- Assay name: Binding affinity against wild type human Tachykinin receptor 1 expressed in CHO cells was measured by its ability to displace [125I]- Tyr-8 substance P.
- Type: cell-based
pIC50: −log10 of the molar value.
Binary call on pIC50: Condition met from 9 upward, Condition not met beneath that.

Asked: Does the reported pIC50 for `FC(F)(F)c1cccc(CO[C@H]2C3CCN(CC3)[C@H]2C(c2ccccc2)c2ccccc2)c1` fall at or above the 9 mark?
Given back: Condition not met

Asked: Does the reported pIC50 for `O=C(CCCN1CCOCC1)N[C@@H](Cc1c[nH]c2ccccc12)C(=O)CCc1cc(C(F)(F)F)cc(C(F)(F)F)c1` fall at or above the 9 mark?
Given back: Condition met

Asked: Does the reported pIC50 for `O=C(Cc1ccncc1)N[C@@H](Cc1c[nH]c2ccccc12)C(=O)CCc1cc(C(F)(F)F)cc(C(F)(F)F)c1` fall at or above the 9 mark?
Given back: Condition met

Asked: Does the reported pIC50 for `O=C(CN1CCOCC1)N[C@@H](Cc1c[nH]c2ccccc12)C(=O)CCc1cc(C(F)(F)F)cc(C(F)(F)F)c1` fall at or above the 9 mark?
Given back: Condition not met

meta.source: ChEMBL document CHEMBL1128269
